Molecular target: Phosphodiesterase, PDE1/PDE5 (Homo sapiens) (UniProt O76074+P54750+Q01064+Q14123)
Test: Realtive inhibition of PDE1 and PDE5
Format: protein assay
Assign class by Selectivity: not lower than 3000 means rule met; lower than 3000 means rule not met.

Is reported Selectivity greater than or equal to 3000 here: CCN1C(=O)c2c(nc(OCc3ccccc3)n2Cc2ccc(O)c(Cl)c2)N2C[C@@H](Cc3ccccc3)N=C12
rule met

Selectivity >= 3000 for CCN1C(=O)c2c(nc(OC)n2Cc2ccc(OC)c(Br)c2)N2C[C@@H](Cc3ccccc3)N=C12 ?
rule met

Hello, I need to know if CCN1C(=O)c2c(nc(OC)n2Cc2ccc(OC)c(Cl)c2)N2C[C@@H](Cc3ccccc3)N=C12 has measured Selectivity not below 3000. Thanks!
rule met

Check the entry CCN1C(=O)c2c(nc(OC)n2Cc2ccc(OC)c(C#N)c2)N2C[C@@H](Cc3ccccc3)N=C12 : does Selectivity equal or exceed 3000?
rule not met

// inclusive: Selectivity at least 3000? input: CCN1C(=O)c2c(nc(OC)n2Cc2ccc(O)c(Br)c2)N2C[C@@H](Cc3ccccc3)N=C12
rule met

More entries:
Is reported Selectivity greater than or equal to 3000 here: CCN1C(=O)c2c(nc(C(N)=O)n2Cc2ccc(O)c(Cl)c2)N2C[C@@H](Cc3ccccc3)N=C12
rule not met

###

Would you kindly list IC50 for each of these compounds?
Biological target: cGMP-specific 3',5'-cyclic phosphodiesterase (Homo sapiens)

A selection of reference data follows.
Please fill in: IC50 reported for CCN1C(=O)c2c(nc(C#Cc3ccccc3)n2Cc2ccccc2)N2C1=N[C@@H]1CCC[C@@H]12 = 8 nM

# compound CCOc1nc2c(n1Cc1ccc(OC)c(Cl)c1)C(=O)N(CC)C1=N[C@@H]3CCC[C@@H]3N12 ; its IC50 = 6.5 nM

Entry CCSc1nc2c(n1Cc1ccc(OC)cc1)C(=O)N(CC)C1=N[C@@H]3CCC[C@@H]3N12 — recorded IC50 = 13 nM

Continuing:
Summary for this compound, CCN1C(=O)c2c(nc(C#N)n2Cc2ccc(OC)cc2)N2C1=N[C@@H]1CCC[C@@H]12 : IC50 is 6.3 nM

###

Molecular target: cGMP-specific 3',5'-cyclic phosphodiesterase (Homo sapiens, UniProt O76074)
Assay: Inhibition of human phosphodiesterase 5 at 100 nM
Record form. Attribute: inhibition. Fill in for each entry.
Numbers only, in %.

inhibition for cGMP-specific 3',5'-cyclic phosphodiesterase (Homo sapiens, UniProt O76074) with input CCN1C(=O)c2c(nc(Cc3ccccc3)n2Cc2ccc3ccccc3c2)N2C1=N[C@@H]1CCC[C@@H]12 equals 32

CCN1C(=O)c2c(nc(Cc3ccccc3)n2Cc2cccc(OC)c2)N2C1=N[C@@H]1CCC[C@@H]12 tested on cGMP-specific 3',5'-cyclic phosphodiesterase (Homo sapiens, UniProt O76074) gave inhibition: 14

Observed inhibition, cGMP-specific 3',5'-cyclic phosphodiesterase (Homo sapiens, UniProt O76074), CCN1C(=O)c2c(nc(Cc3ccccc3)n2Cc2ccc([N+](=O)[O-])cc2)N2C1=N[C@@H]1CCC[C@@H]12 : 8

# lookup: CCN1C(=O)c2c(nc(Cc3ccccc3)n2Cc2ccc(C)c(Cl)c2)N2C1=N[C@@H]1CCC[C@@H]12 on cGMP-specific 3',5'-cyclic phosphodiesterase (Homo sapiens, UniProt O76074), inhibition = 27

# per-item lookup of inhibition; items listed below
1. CCN1C(=O)c2c(nc(N(C)C)n2Cc2ccc(OC)cc2)N2C1=N[C@@H]1CCC[C@@H]12
2. CCN1C(=O)c2c(nc(S(=O)(=O)CC)n2Cc2ccc(OC)cc2)N2C1=N[C@@H]1CCC[C@@H]12

1: 27; 2: 31
